Provenance of the data: paper PMC7049619

- Test method notes: in vivo
- Protocol conditions: male, Sprague-Dawley, rat, plasma, po, 5 mg/kg
Measurement name: half-life (h)

- Structure notation: "CCc1c(CC2CCCCC2)nc(SCc2cc(-c3ccc(O)cc3)[nH]n2)[nH]c1=O"
  Measurement name: "half-life"
  Unit: "h"
  Recorded value: 2.5

---

- Test method notes: in vivo
- Protocol conditions: male, Sprague-Dawley, rat, plasma, po, 5 mg/kg

- Structure notation: "CCc1c(CC2CCCCC2)nc(SCc2cc(-c3ccc(O)cc3)[nH]n2)[nH]c1=O"
  Unit: "ng·h/mL"
  AUC(0-inf): 1370

---

Here the recorded pEC50 is given for each entry.
- System: HIV-1_74V
- Test method notes: Anti-HIV-1 activity against resistant strain HIV-1_74V in C8166 cells
- Assay type: cell-based
- Protocol conditions: Human immunodeficiency virus 1, C8166
pEC50: −log10 of the molar value.
Measurement name: pEC50

- Compound: "Cc1ccnc2c1NC(=O)c1cccnc1N2C1CC1 [NVP, nevirapine, reference compound]"
  Recorded value: 7.11
- Compound: "CCc1c(CC2CCCCC2)nc(SCc2cc(-c3ccc(O)cc3)[nH]n2)[nH]c1=O [I-11]"
  Recorded value: 7.34
- Compound: "CCc1c(CC2CCCCC2)nc(SCc2cc(-c3ccc(SC)cc3)[nH]n2)[nH]c1=O [I-12]"
  Recorded value: 7.06
